Reference source: the supplement of paper PMC11732987

- study_system: USP36 (UniProt Q9P275)
- Sequence (Q9P275 whole entry, the tested form may be a part): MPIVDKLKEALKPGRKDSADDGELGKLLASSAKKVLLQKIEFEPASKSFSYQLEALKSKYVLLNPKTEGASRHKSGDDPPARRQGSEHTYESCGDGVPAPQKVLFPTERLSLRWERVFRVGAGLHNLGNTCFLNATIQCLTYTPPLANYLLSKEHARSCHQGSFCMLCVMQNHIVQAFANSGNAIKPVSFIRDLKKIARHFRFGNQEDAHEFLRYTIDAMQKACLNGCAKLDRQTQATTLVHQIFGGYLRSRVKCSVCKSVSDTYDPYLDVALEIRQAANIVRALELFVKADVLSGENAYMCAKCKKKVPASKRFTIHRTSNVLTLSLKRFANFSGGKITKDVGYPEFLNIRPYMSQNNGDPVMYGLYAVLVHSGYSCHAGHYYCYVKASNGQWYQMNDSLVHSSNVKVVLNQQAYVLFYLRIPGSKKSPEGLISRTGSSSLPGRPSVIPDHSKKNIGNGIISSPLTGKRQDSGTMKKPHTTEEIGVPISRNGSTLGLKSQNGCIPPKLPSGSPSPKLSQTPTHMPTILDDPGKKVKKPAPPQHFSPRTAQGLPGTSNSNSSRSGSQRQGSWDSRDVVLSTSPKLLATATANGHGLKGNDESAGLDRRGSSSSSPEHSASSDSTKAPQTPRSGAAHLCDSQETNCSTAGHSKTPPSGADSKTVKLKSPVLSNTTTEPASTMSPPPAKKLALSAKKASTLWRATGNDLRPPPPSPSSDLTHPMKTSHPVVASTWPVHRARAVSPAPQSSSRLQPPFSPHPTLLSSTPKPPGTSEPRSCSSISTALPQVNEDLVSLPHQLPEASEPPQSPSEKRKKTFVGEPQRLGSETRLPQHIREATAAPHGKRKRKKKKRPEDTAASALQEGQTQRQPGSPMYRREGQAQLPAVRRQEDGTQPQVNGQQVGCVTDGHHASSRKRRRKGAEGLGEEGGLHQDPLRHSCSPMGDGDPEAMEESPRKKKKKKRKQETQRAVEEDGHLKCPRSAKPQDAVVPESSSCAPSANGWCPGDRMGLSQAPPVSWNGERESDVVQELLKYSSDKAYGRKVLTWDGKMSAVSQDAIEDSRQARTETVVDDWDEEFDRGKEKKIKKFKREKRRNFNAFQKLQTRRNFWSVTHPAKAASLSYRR
- experiment_notes: log2 ratio of Biotin-Ahx-Ub-VS probe labelling (fragment/DMSO); higher = less target engagement (more negative = stronger competition), active = hit call of the paper (q ≤ 0.05, log2 ratio ≤ -1)
- cond: compound concentration: 200 uM; treatment time: 3 h
Entry flag: YES if log2 ratio of Biotin-Ahx-Ub-VS probe labelling reaches -0.01; NO if it does not.

Cl.O=C(CCl)NCc1cc2c(nc1O)CCCC2 | NO
CC(NC(=O)CCl)c1csc(-c2ccccc2)n1.Cl (centres undefined) | NO
O=C(CCl)NCc1cccc(N2CCCC2=O)c1 | NO
O=C(CCl)Nc1nnc(CC(F)(F)F)o1 | NO
Cc1nc(CN2CCCN(C(=O)CCl)CC2)no1.Cl | NO
O=C(CCl)N1CCC(c2nc3ccccc3o2)CC1 | NO
CC(C)n1nccc1NC(=O)CCl | NO
CC1(NC(=O)CCl)CCS(=O)(=O)C1 (centres undefined) | NO
N#Cc1ccc(Cl)cc1NC(=O)CCl | YES
Cc1c(C#N)c(NC(=O)CCl)n(Cc2ccco2)c1C | NO
Cc1ccc(-c2nnc(C)[nH]2)c(NC(=O)CCl)c1 | NO
O=C(CCl)Nc1ccc(Cl)c(F)c1 | NO
CCN1C(=O)C2CN(C(=O)CCl)CCN2C1=O (centres undefined) | NO
CC1Cc2ccccc2N1C(=O)CCl (centres undefined) | YES
CC(NC(=O)CCl)c1cccc(Cl)c1 (centres undefined) | NO
Cl.O=C(CCl)N[C@H]1C[C@@H](n2cccn2)C1 | YES
CN(C)C(=O)c1ccc(NC(=O)CCl)cc1 | YES
COc1cccc(CN(C)C(=O)CCl)c1 | NO
O=C(CCl)N1CCc2ccccc2C(O)C1 (centres undefined) | NO
O=C(CCl)Nc1cccc(C(=O)N2CCSCC2)c1 | YES
CS(=O)(=O)c1ccc(CNC(=O)CCl)cc1 | NO
O=C(CCl)N1CCc2nc[nH]c2C1c1ccc(Cl)cc1 (centres undefined) | YES
O=C(CCl)Nc1cc(Cl)ccc1C(=O)O | YES
N#Cc1ccc(CNC(=O)CCl)cc1 | YES
C#Cc1cccc(NC(=O)CCl)c1 | YES
O=C(CCl)N1CCOC(CCc2ccccc2)C1 (centres undefined) | YES
Cc1ccccc1C1(CNC(=O)CCl)CCOCC1 | YES
O=C(CCl)Nc1nc(-c2cccs2)cs1 | NO
CN(C)S(=O)(=O)c1ccccc1CNC(=O)CCl | YES
